Catalogue of pEC50 values
Molecular target: UniProt P43220
Assay: GLP-1R activation cAMP assay (Assay 1 or Assay 2)
Conditions: cAMP increase in CHO cells stably expressing GLP-1R; compounds run on one of the two cAMP assays
Quick note: pEC50 values are minus log10 of concentrations in mol/L.

Please report pEC50 for the following molecule: COc1nnc(COc2cc(-c3cc(F)c(Cc4nc5c(F)cc(C(=O)O)cc5n4C[C@@H]4CCO4)cc3F)ccc2F)s1 9.59

---

Catalogue of pEC50 values
Target: GLP-1R (Homo sapiens, UniProt P43220)
Sequence (P43220 24-463): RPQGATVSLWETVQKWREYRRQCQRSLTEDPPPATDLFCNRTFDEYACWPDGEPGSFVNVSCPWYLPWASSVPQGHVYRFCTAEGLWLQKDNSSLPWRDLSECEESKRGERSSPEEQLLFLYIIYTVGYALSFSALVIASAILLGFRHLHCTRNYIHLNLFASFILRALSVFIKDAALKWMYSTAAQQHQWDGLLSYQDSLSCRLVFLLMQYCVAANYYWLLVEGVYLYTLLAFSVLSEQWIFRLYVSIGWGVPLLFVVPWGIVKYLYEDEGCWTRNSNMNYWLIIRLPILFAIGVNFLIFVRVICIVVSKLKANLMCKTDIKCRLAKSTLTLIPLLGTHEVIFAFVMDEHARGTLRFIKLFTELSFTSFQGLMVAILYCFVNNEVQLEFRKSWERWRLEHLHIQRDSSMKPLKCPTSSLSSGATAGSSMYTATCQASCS
Test: GLP-1R activation cAMP assay (Assay 1 or Assay 2)
Conditions: cAMP increase in CHO cells stably expressing GLP-1R; compounds run on one of the two cAMP assays
Quick note: pEC50 values are minus log10 of concentrations in mol/L.

Use these answered entries as a reference point.
• O=C(O)c1ccc2nc(Cc3cc(F)c(-c4cccc(OCc5ccn(-c6ccncc6)n5)n4)cc3F)n(C[C@@H]3CCO3)c2c1 [Example 125] = 8.44
• O=C(O)c1ccc2nc(Cc3cc(F)c(-c4cccc(OCc5cnc(-c6cnn(C7COC7)c6)cc5F)n4)cc3F)n(C[C@@H]3CCO3)c2c1 [Example 162] = 9.80
• O=C(O)c1ccc2nc(Cc3cc(F)c(-c4cccc(OCc5ccc(C#Cc6cncs6)cc5F)n4)cc3F)n(C[C@@H]3CCO3)c2c1 [Example 137] = 9.62
• CNC(=O)c1cc(Cl)c(COc2cccc(-c3cc(F)c(Cc4nc5c(F)cc(C(=O)O)cc5n4CC4(CF)CC4)cc3F)n2)cn1 [Example 417] = 9.59

Please report pEC50 for the following compound: Cn1cc(C#Cc2ccc(COc3cccc(-c4cc(F)c(Cc5nc6ccc(C(=O)O)cc6n5C[C@@H]5CCO5)cc4F)n3)cn2)cn1 [Example 147] 9.22

Please report pEC50 for the following compound: NC(=O)c1sc(COc2cccc(-c3cc(F)c(Cc4nc5ccc(C(=O)O)cc5n4C[C@@H]4CCO4)cc3F)n2)cc1F [Example 204] 8.25

Please report pEC50 for the following compound: N#Cc1cccc(C#Cc2cnc(COc3cccc(-c4cc(F)c(Cc5nc6ccc(C(=O)O)cc6n5C[C@@H]5CCO5)cc4F)n3)s2)c1 [Example 316] 9.89

Please report pEC50 for the following compound: COCCn1c(Cc2ccc(-c3cccc(OCc4ccc(C#Cc5cnc(N6CC7CCC(C6)N7C6COC6)nc5)cc4F)n3)cc2F)nc2ccc(C(=O)O)cc21 [Example 150] 8.00

Please report pEC50 for the following compound: O=C(O)c1ccc2nc(Cc3cc(F)c(-c4cccc(OCc5nnc(OCC(F)(F)F)s5)n4)cc3F)n(C[C@@H]3CCO3)c2c1 [Example 350] 9.68

Please report pEC50 for the following compound: O=C(O)c1ccc2nc(Cc3cc(F)c(-c4cccc(OCc5ncc(C(F)F)s5)n4)cc3F)n(C[C@@H]3CCO3)c2c1 [Example 58] 9.85

Please report pEC50 for the following compound: CCOc1nnc(COc2nc(-c3cc(F)c(Cc4nc5ccc(C(=O)O)cc5n4[C@@H]4COCC4(C)C)cc3C)ccc2F)s1 [Example 262] 9.87

Please report pEC50 for the following compound: COc1cc(C(=O)NC2(C#N)CC2)ncc1COc1cccc(-c2cc(F)c(Cc3nc4c(F)cc(C(=O)O)cc4n3C[C@@H]3CCO3)cc2F)n1 [Example 42] 10.15

Please report pEC50 for the following compound: CC1(C)COC[C@H]1n1c(Cc2cc(F)c(-c3cccc(OCc4ncc(Cl)s4)n3)cc2F)nc2ccc(C(=O)O)cc21 [Example 254] 9.43
